z-score reference
assay.info: mitochondrial membrane potential change in A549 cells, profiling panel, cell-based, JC-1 fluorescence, basal, 24 h, 100 nL (AID 1138);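 further: A549 lung adenocarcinoma cells under basal conditions with no added stimulus; test concentration not given here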
condition: higher = more signal

[
  {
    "molecule": "CCOC(=O)C[C@H]1[C@H](OC(=O)c2ccc(C(=O)c3ccccc3)cc2)[C@@H](NC(=O)C2CCCCC2)c2cc(OCCCO)ccc2N1C(=O)c1ccccc1",
    "z-score": 2.14
  },
  {
    "molecule": "CCCCC=C[C@@H](NC(=O)c1cccs1)c1ccccc1",
    "z-score": 0.679
  },
  {
    "molecule": "CC(C)c1ccc(NN2C(C(O)c3ccc(N(C)C)cc3)C=CC3C(=O)N(c4ccccc4)C(=O)C32)cc1 (configuration not stated)",
    "z-score": 0.594
  },
  {
    "molecule": "COc1c(C)cc(-c2cc3c(c(-c4ccc(Oc5ccccc5)cc4)n2)[Si](C(C)C)(C(C)C)OC3)cc1C",
    "z-score": 0.577
  },
  {
    "molecule": "O=C1O[C@@H](c2ccccc2)[C@@H](c2ccccc2)N2[C@@H](c3ccc(O)cc3)[C@]3(C(=O)Nc4ccc(C#CC5(O)CCCCCC5)cc43)[C@@H](C(=O)N3CCCCCCC3)[C@H]12",
    "z-score": -0.15
  },
  {
    "molecule": "O=c1cccc(CCc2ccccc2)o1",
    "z-score": 0.426
  },
  {
    "molecule": "CCOC(=O)[C@H]1C/C=C/C[C@H](C(=O)OCC)C(=O)O[C@H]2[C@@H](OC)O[C@H](CO)[C@@H](OC(=O)Nc3ccc4c(c3)OCO4)[C@@H]2OC1=O",
    "z-score": -1.25
  }
]

----------
assay.info: HepG2 liver cancer cell viability effects, profiling panel, resazurin fluorescence, 24 h, PK04 Diversity Set (AID 1172); further: test concentration not given here
condition: higher = more signal
The threshold is inclusive: z-score of exactly 0.2 counts as t; values below receive f.

[
  {
    "molecule": "CN(C)C(=O)[C@@]1(CCC(=O)OC(C)(C)C)N=C(c2ccc(OCCCO)cc2)O[C@H]1c1ccccc1",
    "qualitative.label": "f"
  },
  {
    "molecule": "CC(C)c1ccc(NN2C(C(O)c3cccc(O)c3)C=CC3C(=O)N(c4ccccc4)C(=O)C32)cc1 (stereo not drawn)",
    "qualitative.label": "f"
  },
  {
    "molecule": "COCCOC(=O)N1C(=O)[C@@]2(c3cc(C#CC4(O)CCCCCC4)ccc31)[C@H](C(=O)N1CCCCCCC1)[C@H]1C(=O)O[C@H](c3ccccc3)[C@H](c3ccccc3)N1[C@@H]2c1ccccc1OCCO",
    "qualitative.label": "f"
  },
  {
    "molecule": "O=C1O[C@H](c2ccccc2)[C@H](c2ccccc2)N2[C@H]1[C@@H](C(=O)O)[C@]1(C(=O)Nc3ccc(C#CC4(O)CCCCCC4)cc31)[C@H]2c1ccc(OCCO)cc1",
    "qualitative.label": "t"
  },
  {
    "molecule": "CN1C(=O)C2C=CC(C(O)c3ccccn3)N(Nc3ccccc3)C2C1=O (stereo not drawn)",
    "qualitative.label": "f"
  },
  {
    "molecule": "COC(=O)C(CC#Cc1ccc2c(c1)[C@]1(C(=O)N2)[C@H](C(=O)NC[C@H](O)c2ccccc2)[C@H]2C(=O)O[C@H](c3ccccc3)[C@H](c3ccccc3)N2[C@@H]1c1ccc(OCCO)cc1)C(=O)OC",
    "qualitative.label": "f"
  },
  {
    "molecule": "COC(=O)[C@@]1(Cc2ccccc2)[C@H]2c3cc(C(=O)N(C)C)n(Cc4cc(C)n(C)n4)c3C[C@H]2CN1C(=O)c1ccccc1",
    "qualitative.label": "f"
  },
  {
    "molecule": "CC(C)CNC(=O)[C@@]1(c2ccc([N+](=O)[O-])cc2)CC(=O)N(CC23CC4CC(CC(C4)C2)C3)[C@@H]1c1ccc(CO)cc1I",
    "qualitative.label": "f"
  },
  {
    "molecule": "Cc1ccc(S[C@]2(C(=O)NC3CC3)CC(=O)N(Cc3ccccc3)[C@@H]2c2ccc(CO)cc2)cc1",
    "qualitative.label": "f"
  },
  {
    "molecule": "O=C(O)[C@H]1C[C@H]2C(=O)NCC(=O)N2[C@H]1c1ccc(O)cc1",
    "qualitative.label": "t"
  },
  {
    "molecule": "COc1cccc(C(=O)O[C@H]2CC[C@]3(C)C4=C(CCC3C2(C)C)[C@]2(C)CC[C@H]([C@H](C)CCCC(C)C)[C@@]2(C)CC4)c1 (stereo partly drawn)",
    "qualitative.label": "t"
  },
  {
    "molecule": "C=CCC(OC(C)=O)[C@@H]1[C@@H](N(Cc2cccc3ccccc23)C(=O)c2ccc(C)cc2)c2cc(OCCCO)ccc2N1C(=O)Cc1ccc(OC)cc1 (stereo partly drawn)",
    "qualitative.label": "t"
  }
]
